assay: NCI Yeast Anticancer Drug Screen. Data for the cln2 rad14 strain (AID 165);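 further: 0% = growth equal to vehicle treated cultures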; conditions: S. cerevisiae cln2 rad14 strain, at 50.0 µM
The panel holds about 79,000 compounds, 15% with a hit somewhere; the sample as a whole holds those more often. Activity calls are given as the source filed them. No stated cut-off is given here; in the data, active means growth inhibition above about 70%; inactive means the rest.
Possible outcomes: T for active, F for inactive

{"compound": "O=C(N/N=C\\c1ccc(Cl)cc1)Nc1ccc2ccccc2c1", "category": "F"}
{"compound": "CCOC(=O)c1ccc(NC=O)cc1", "category": "F"}
{"compound": "COC(=O)C(CC(=O)[C@H]1CC[C@H]2[C@@H]3CC[C@H]4C[C@@H](OC(C)=O)CC[C@]4(C)[C@H]3CC[C@]12C)OC(C)=O (stereo partly specified)", "category": "F"}
{"compound": "C=C1C(C(=O)O)C1C(=O)O (stereo unspecified)", "category": "F"}
{"compound": "O=C1NC(=O)C(c2ccsc2)(c2cccs2)N1 (stereo unspecified)", "category": "F"}
{"compound": "CC(=O)Nc1c([N+](=O)[O-])cc(O)cc1[N+](=O)[O-]", "category": "F"}
{"compound": "O=C(O)c1ccc2c(Cl)ccc3c2c1CC3", "category": "F"}
{"compound": "Cc1cc([O-])c([I+]c2ccccc2)c(=O)[nH]1", "category": "T"}
{"compound": "O=C(OCC(COC(=O)c1ccccc1)OC(=O)c1ccccc1)c1ccccc1", "category": "F"}
{"compound": "COC1CCC2C(C1)C(C1CCCCC1)C1CCCCC1C2C1CCCCC1 (stereo unspecified)", "category": "F"}
{"compound": "O=S(=O)(Nc1cccc(Cl)c1)c1ccc(Cl)cc1", "category": "T"}

###

experiment: NCI Yeast Anticancer Drug Screen. Data for the sgs1 mgt1 strain (AID 161);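 further: 0% = growth of cultures given vehicle only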; details: S. cerevisiae sgs1 mgt1 strain, at 50.0 µM, hits give high values
Compounds without any hit were thinned out: in the full panel of roughly 79,000, 15% have a hit.
Each entry below carries its reported growth inhibition.

{"molecule": "O=Cc1ccccc1COC(=O)c1cc(C(=O)OCc2ccccc2C=O)c(C(=O)OCc2ccccc2C=O)cc1C(=O)OCc1ccccc1C=O", "growth inhibition [%]": -14.2}
{"molecule": "COc1ccc(C(=O)CC(=O)CCC(=O)Nc2ccc(Cl)cc2Cl)cc1", "growth inhibition [%]": 20.9}
{"molecule": "O=C(NNc1ccccc1)/C(=C/c1ccc2c(c1)OCO2)NC(=O)c1ccccc1", "growth inhibition [%]": -29.6}
{"molecule": "CCOC(=N)CC(=O)NC(C)c1ccccc1 (stereo not drawn)", "growth inhibition [%]": -6}
{"molecule": "COc1cc2nc(Sc3c([N+](=O)[O-])ncn3C)[nH]c2cc1OC", "growth inhibition [%]": -30}
{"molecule": "CC(=O)OCC1OC(n2cc(I)c(=O)[nH]c2=O)C(OC(C)=O)C(OC(C)=O)C1OC(C)=O (stereo not drawn)", "growth inhibition [%]": -12.2}
{"molecule": "O=C(Nc1ccc(F)cc1)Nc1ccc(I)cc1", "growth inhibition [%]": 5.6}
{"molecule": "C/C(=C(/C)c1cc[n+](C)cc1)c1cc[n+](C)cc1", "growth inhibition [%]": 67}
{"molecule": "CC(=O)Nc1c([N+](=O)[O-])cc(O)cc1[N+](=O)[O-]", "growth inhibition [%]": 12.3}
{"molecule": "CCOC(=O)c1ccc(C#N)cc1", "growth inhibition [%]": -11.2}
{"molecule": "CC(C)(C)[Si](C)(C)OC1C(=O)C[C@H]2CCCC[C@@H]12 (stereo partly drawn)", "growth inhibition [%]": -1.75}
{"molecule": "CS[C@]12C(=O)C[C@@]3(C)[C@@H](CC[C@]3(O)C(=O)CO)[C@@H]1CCC1=CC(=O)CC[C@@]12C", "growth inhibition [%]": -15.9}
{"molecule": "C/C(=N\\N=C(/C)c1ccc(Br)s1)c1ccc(Br)s1", "growth inhibition [%]": -23.7}
{"molecule": "CCC[N+](C)(C)C", "growth inhibition [%]": -1.15}
{"molecule": "COc1cc(-c2ccc(N=Nc3ccc(N)nc3N)c(OC)c2)ccc1N=Nc1ccc(N)nc1N", "growth inhibition [%]": 23.3}
{"molecule": "O=C(CCCC(=O)Nc1cccc([N+](=O)[O-])c1)CC(=O)c1ccc([N+](=O)[O-])cc1", "growth inhibition [%]": -8.2}
{"molecule": "O=C(/C=C(\\C(=O)c1ccccc1)c1ccccc1)c1ccc(Cl)cc1", "growth inhibition [%]": -4.45}
{"molecule": "O=C(O)CNc1ncnc2[nH]ncc12", "growth inhibition [%]": 2.85}
{"molecule": "O=C1CCCCC1O (stereo not drawn)", "growth inhibition [%]": -15.2}
{"molecule": "C/C(CC1CCCCC1)=N\\NC(N)=O", "growth inhibition [%]": -5.8}
{"molecule": "Cn1cc(-n2[nH]c(=O)n(-c3ccccc3)c2=O)c(=O)n(C)c1=O", "growth inhibition [%]": -1.1}
{"molecule": "Cc1cc(=O)[nH]c(=O)[nH]1", "growth inhibition [%]": -16.6}
{"molecule": "NC(N)=NC(N)=Nc1c(F)c(F)c(F)c(F)c1F", "growth inhibition [%]": -11.8}

###

assay: NCI Yeast Anticancer Drug Screen. Data for the cln2 rad14 strain (AID 165);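 further: 0% = growth equal to vehicle treated cultures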; conditions: S. cerevisiae cln2 rad14 strain, at 50.0 µM, hits give high values
Compounds without any hit were thinned out: in the full panel of roughly 79,000, 15% have a hit.
endpoint_label: growth inhibition (%)

{"molecule": "CN(CCC#N)c1ccc(/C=C(\\C#N)c2ccc(Br)cc2)cc1", "measurement_units": "%", "measurement": -12}
{"molecule": "Nc1ccc(C(C(=O)O)c2ccccc2)cc1Cl (stereo not drawn)", "measurement_units": "%", "measurement": -1.55}
{"molecule": "Oc1ccc(Cl)cc1CN1CCOCC1", "measurement_units": "%", "measurement": 21.5}
{"molecule": "CC(C)(C)c1cc(C2OC(N)=C(O)C2=O)cc(C(C)(C)C)c1O (stereo not drawn)", "measurement_units": "%", "measurement": 13.8}
{"molecule": "CC1CNC(C)(C)O1 (stereo not drawn)", "measurement_units": "%", "measurement": 23.6}
{"molecule": "CN1C(=O)C2C=CC1c1ccccc12 (stereo not drawn)", "measurement_units": "%", "measurement": -37}
{"molecule": "C=CCC1=C(C)C(O)CC1=O (stereo not drawn)", "measurement_units": "%", "measurement": -15.7}
{"molecule": "CC(=O)OCC12CCC(C)=CC1O[C@H]1[C@@H](OC(C)=O)[C@H](OC(C)=O)[C@]2(C)[C@@]12CO2 (stereo partly drawn)", "measurement_units": "%", "measurement": 42.4}
{"molecule": "COC(=O)c1sc(C(=O)OC)c2c1CS(=O)C2", "measurement_units": "%", "measurement": 30}
{"molecule": "COC(=O)C12C3C4C1C1C2C3C41C(=O)OC(C)(C)C (stereo not drawn)", "measurement_units": "%", "measurement": 4.5}
{"molecule": "O=C1CSc2nc3ccc(Br)cc3c(=O)n21", "measurement_units": "%", "measurement": -19.4}
{"molecule": "CC(=O)NCCCCCC(=O)O", "measurement_units": "%", "measurement": 10.7}
{"molecule": "CC(=O)N(C)c1ccc(NC(=O)/C=C/c2ccccc2)cc1", "measurement_units": "%", "measurement": -9.85}

###

// values below are reported growth inhibition
assay: NCI Yeast Anticancer Drug Screen. Data for the sgs1 mgt1 strain (AID 161);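 further: 0% = growth of cultures given vehicle only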; settings: S. cerevisiae sgs1 mgt1 strain, at 50.0 µM, hits give high values
Compounds without any hit were thinned out: in the full panel of roughly 79,000, 15% have a hit.
endpoint_label: growth inhibition (%)

{"compound": "CC1(C)CC(OP(=O)(OC2CC(C)(C)N(O)C(C)(C)C2)c2ccccc2)CC(C)(C)N1O", "measurement": 11.1}
{"compound": "CC(C)=NOCCC#N", "measurement": -4.8}
{"compound": "CC1(C)c2ccccc2-c2nc3ccccc3nc2C1O (stereo unspecified)", "measurement": -8}
{"compound": "CC(=O)/C(=C/n1ccc(=O)[nH]c1=S)C(=O)Nc1ccc(Cl)cc1", "measurement": 4.7}
{"compound": "Cc1cccc(C)c1NC(=O)C(=O)Cc1nc2ccccc2s1", "measurement": -9.25}
{"compound": "OCC(O)C(O)C(OC1OC(CO)C(O)C(O)C1O)C(O)CO (stereo unspecified)", "measurement": 26.9}
{"compound": "CN1/C(=C\\N=O)C(C)(C)N(O)C1(C)C", "measurement": 2.55}
{"compound": "Nc1nc(N)nc(-c2ccccc2NS(=O)(=O)c2ccc([N+](=O)[O-])cc2)n1", "measurement": 6.2}
{"compound": "COc1cc2c(C)nc3c4cc5c(cc4ccc3c2cc1OC)OCO5", "measurement": 18.2}
{"compound": "COc1ccc(N=Cc2ccc(N(CCC#N)S(=O)(=O)c3ccccc3)cc2)cc1", "measurement": 2.05}
{"compound": "CC(=O)O[C@H]1[C@@H]2[C@@H]3[C@@H](C[C@H]1C)[C@@H](C)CO[C@@]1(C)CC/C=C(/C)C[C@@H]2O[C@@H]31", "measurement": 0.15}
